test system: human PKK mRNA; assay: Antisense inhibition of human PKK mRNA in HepaRG cells, 3,000 nM (Example 1); assay type: cell-based; conditions: Table 1; PKK mRNA, HepaRG cells, 3,000 nM, electroporation, ~24 h, relative to untreated control cells
Strand notation (5' to 3'): a small letter for the sugar, then the base; units joined by * are phosphorothioate-linked, units joined directly phosphodiester-linked; [ ] holds rarer units or linkages, { } end groups; capitals alone tell only the bases. e = 2'-O-(2-methoxyethyl) (MOE); [5mC] = 5-methylcytosine; d = 2'-deoxy (DNA)
This section presents substances with their documented % inhibition values.
Just so you know, I need the unit written after the number.

Known results for substances:
530946 (antisense eT*eA*e[5mC]*eA*eT*d[5mC]*d[5mC]*d[5mC]*d[5mC]*dA*d[5mC]*d[5mC]*dT*d[5mC]*dT*eG*eA*eA*eG*eA) [compound 530946]
0%
530988 (eT*e[5mC]*e[5mC]*eA*eA*dA*dG*dT*d[5mC]*dA*dA*d[5mC]*dT*d[5mC]*d[5mC]*e[5mC]*eG*eG*eG*eT; antisense) [compound 530988]
76%
530966 (antisense eA*eA*eT*eT*eT*d[5mC]*dT*dG*dA*dA*dA*dG*dG*dG*d[5mC]*eA*e[5mC]*eA*eG*eG) [compound 530966]
58%
530968 (antisense e[5mC]*eA*eA*eG*eA*dT*dG*d[5mC]*dT*dG*dG*dA*dA*dG*dA*eT*eG*eT*eT*e[5mC]) [compound 530968]
18%
530976 (antisense eA*eT*eA*eT*eG*dG*dT*dG*dT*dT*dT*dT*d[5mC]*dT*dT*eG*eA*eG*eG*eA) [compound 530976]
26%

Looking up 530971 (antisense eG*eG*eA*eA*e[5mC]*dT*dT*dG*dG*dT*dG*dT*dG*d[5mC]*d[5mC]*eA*e[5mC]*eT*eT*eT) [compound 530971] , I found its % inhibition recorded as 85%

Recorded % inhibition (substance 530972 (antisense eG*eT*eA*eG*eA*dG*dG*dA*dA*d[5mC]*dT*dT*dG*dG*dT*eG*eT*eG*e[5mC]*e[5mC]) [compound 530972] ): 42%

Field % inhibition (entry 530953 (antisense eG*eA*eA*eA*eA*d[5mC]*dT*dG*dA*dA*dT*dA*dG*d[5mC]*dA*eA*eA*e[5mC]*eA*e[5mC]) [compound 530953] ) reads 7%

// 530994 (e[5mC]*eT*eT*eG*eG*d[5mC]*dA*dA*dA*d[5mC]*dA*dT*dT*d[5mC]*dA*e[5mC]*eT*e[5mC]*e[5mC]*eT; antisense) [compound 530994] : % inhibition value = 50%

Reported % inhibition of 530982 (antisense eT*eA*eA*eA*eG*dT*dT*d[5mC]*dT*dT*dT*dT*dG*d[5mC]*dA*eG*eG*eT*eT*eA) [compound 530982] : 0%

The recorded % inhibition for 530990 (eA*eT*eT*e[5mC]*eT*dT*d[5mC]*dT*d[5mC]*d[5mC]*dT*d[5mC]*d[5mC]*dA*dA*eA*eG*eT*e[5mC]*eA; antisense) [compound 530990] is 32%

GET /value?item= 530999 (e[5mC]*eA*eG*eT*e[5mC]*dT*dT*d[5mC]*dT*dG*dG*dG*dA*dG*dT*eA*eA*eA*eG*eA; antisense) [compound 530999] &field=% inhibition returns 31%

For reference, reported % inhibition for 530936 (antisense eT*eG*e[5mC]*eT*eT*dG*d[5mC]*dT*dT*dG*dA*dA*dT*dA*dA*eA*eA*eT*e[5mC]*eA) [compound 530936] stands at 27%

% inhibition reading for 530937 (antisense eT*eA*eA*eG*eT*dT*dG*d[5mC]*dT*dT*dG*d[5mC]*dT*dT*dG*eA*eA*eT*eA*eA) [compound 530937] : 0%

Consider 530952 (antisense e[5mC]*eT*eG*eA*eA*dT*dA*dG*d[5mC]*dA*dA*dA*d[5mC]*dA*d[5mC]*e[5mC]*eT*eT*eG*eG) [compound 530952] . Its measured % inhibition is 38%

# substance 530987 (eA*e[5mC]*eT*e[5mC]*e[5mC]*d[5mC]*dG*dG*dG*dT*dA*dA*dA*dT*dT*eT*eT*eA*eG*eA; antisense) [compound 530987] ; its % inhibition = 0%
